- Tested on: MDA-MB-231
- assay remarks: WST-1 cytotoxicity assay, MDA-MB-231
- Assay type: cell-based
- run parameters: Homo sapiens, MDA-MB-231, 24 h
quantity name: pIC50
When answering, recall that pIC50 equals minus log10 of the concentration in mol/L, and write that number alone.

## Input Would you mind telling me what pIC50 value was observed for `NS(=O)(=O)c1ccc(CCNCc2cc(Br)ccc2O)cc1` ?
## Output 2.71

## Input I have this compound here, O=c1[nH]cc(F)c(=O)[nH]1 [5-FU, 5-Fluorouracil, reference compound] , and I need its recorded pIC50.
## Output 4.37

The measurements presented in this section are drawn from paper PMC8201173.
